src = patent US5707977A

protocol_text: Solubility in water and in 0.1N HCl (1 hour shaking at room temperature, UV-spectroscopy)
Assay type: physicochemical
condition_description: solvent: water, measured pH 6.65 to 7.01
property_measured: solubility at 1 h

Given CC(C)(C)C(Cn1ncn(-c2ccc(N3CCN(c4ccc(OC[C@H]5CO[C@](Cn6cncn6)(c6ccc(F)cc6F)O5)cc4)CC3)cc2)c1=O)OP(=O)(O)Oc1ccccc1 (mixture of isomers) [Compound 2, sodium phosphate] , respond with its solubility at 1 h.
> 6000 µg/mL

----------
protocol_text: Solubility in water and in 0.1N HCl (1 hour shaking at room temperature, UV-spectroscopy)
Format: physicochemical
condition_description: water, solvent: water, measured pH 6.65 to 7.01
property_measured: solubility at 1 h (µg/mL)
One number for each entry, in µg/mL.

Solved cases below.
Given CC(C)(C)C(Cn1ncn(-c2ccc(N3CCN(c4ccc(OC[C@H]5CO[C@](Cn6cncn6)(c6ccc(F)cc6)O5)cc4)CC3)cc2)c1=O)OP(=O)(O)O (mixture of isomers) , respond with its solubility at 1 h.
2650

Given CC(C)(C)C(Cn1ncn(-c2ccc(N3CCN(c4ccc(OC[C@H]5CO[C@](Cn6cncn6)(c6ccc(F)cc6F)O5)cc4)CC3)cc2)c1=O)OP(=O)(O)O (mixture of isomers) , respond with its solubility at 1 h.
31900

With those in mind, consider the next compound.
Given CC(C)(C)C(Cn1ncn(-c2ccc(N3CCN(c4ccc(OC[C@H]5CO[C@](Cn6cncn6)(c6ccc(Cl)cc6)O5)cc4)CC3)cc2)c1=O)OP(=O)(O)O (mixture of isomers) [Compound 7, monohydrate] , respond with its solubility at 1 h.
350
